molecular target: Thyroid hormone receptor beta (Homo sapiens) (UniProt P10828); assay: qHTS assay for small molecule antagonists of thyroid hormone receptor beta signaling (AID 588547); details: TR-UAS-bla HEK293, beta-lactamase ratio, antagonist mode, 18 h;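 note: cells stimulated with 0.4 nM T3 agonist during compound exposure; series mostly up to about 77 µM; % is set by controls: 0 for no effect and ±100 for the full control effect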
Sequence (P10828 whole entry, looked up): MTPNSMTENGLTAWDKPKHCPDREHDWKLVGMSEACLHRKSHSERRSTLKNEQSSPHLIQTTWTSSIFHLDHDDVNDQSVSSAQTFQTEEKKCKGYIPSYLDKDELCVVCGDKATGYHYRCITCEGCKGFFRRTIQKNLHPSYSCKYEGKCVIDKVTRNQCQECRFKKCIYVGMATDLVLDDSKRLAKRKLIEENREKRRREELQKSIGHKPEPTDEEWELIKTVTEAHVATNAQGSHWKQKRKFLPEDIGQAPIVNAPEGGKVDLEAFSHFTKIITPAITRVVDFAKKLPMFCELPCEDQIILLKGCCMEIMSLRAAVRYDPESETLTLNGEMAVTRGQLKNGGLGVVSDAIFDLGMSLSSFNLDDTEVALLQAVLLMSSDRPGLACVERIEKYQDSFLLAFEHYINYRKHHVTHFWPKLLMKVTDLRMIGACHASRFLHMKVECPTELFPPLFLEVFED
Inconclusive results are not listed.
Catalogue of molecules with associated activity change % (negative = inhibition)
QUANTITY NAME: activity change % (negative = inhibition) (%)

MOLECULE	REPORTED VALUE
ClC(Cl)c1ccccc1	-1.09
CCCCOCC1CO1 (configuration not stated)	12.9
Cl/C=C/Cl	-4.77
O=[N+]([O-])c1ccccc1CCl	8.81
CC[N+](=O)[O-]	-0.712
CN(C)c1ccc(N=Nc2ccccc2)cc1	-4.36
O=[N+]([O-])/C=C/c1ccccc1	-15.9
O=[N+]([O-])c1cc(Cl)c(Cl)cc1Cl	5.06
CCCCCc1cc(O)cc(O)c1	-2.41
Cc1ccc(N=C=O)cc1N=C=O	-8.5
O=[N+]([O-])CCO	2.47
Cl/C=C\Cl	0.348
